System: HCT-116 colon
Assay: NCI-60 one-dose screen, 48 h (100 = growth as untreated, 0 = no growth, -100 = all killed)
Details: 10 µM unless noted
Procedure: Growth inhibition of the HCT-116 human tumor cell line is measured as a screen for anti-cancer activity. Cells are grown in 96 well plates and exposed to the test compound for 48 hours. Compounds are tested at a single concentration, which is 10^-5 M for most compounds. The reported endpoint is percent growth (GI% or GIPRCNT), where numbers from 0 - 100% represent growth inhibition, and numbers from -100% - 0 represent cell death. For example, a value of 40 represents 60% growth inhibition. […]
This is part of a sample that, as a whole, favours compounds with a hit. Of some 83,000 tested, about 20% had one in any assay.
Answer each item with its documented growth.
Give bare numbers, in %.

// below: answered molecules
[[record]]
molsmiles = "Cc1nc2sc(C(=O)Nc3cccc4ccccc34)c(N)c2cc1C(=O)c1ccccc1"
unitssymbol = "%"
reportedresult = 11.3

[[record]]
molsmiles = "COC(=O)c1sccc1-c1cc(O)c(C(=O)Nc2ccccc2)s1"
unitssymbol = "%"
reportedresult = 94.6

[[record]]
molsmiles = "COc1cc(Cc2cc(OC)c(O)c(OC)c2)cc(OC)c1O"
unitssymbol = "%"
reportedresult = 85.6

[[record]]
molsmiles = "NC(=O)c1ccccc1OCC(=O)Nc1ccc(Cl)c(Cl)c1"
unitssymbol = "%"
reportedresult = 100

[[record]]
molsmiles = "O=C1NC(=O)C(c2coc3cc(Br)ccc23)=C1c1c[nH]c2ccccc12"
unitssymbol = "%"
reportedresult = 27.3

[[record]]
molsmiles = "CSc1ccc(N2C(=N)C(=S)N(c3ccc(C)cc3)C2=O)cc1"
unitssymbol = "%"
reportedresult = 93.7

[[record]]
molsmiles = "O=S(=O)(Nc1ccc2ccccc2c1)c1ccc(-c2cnc(C3CC3)o2)cc1"
unitssymbol = "%"
reportedresult = 25.4

[[record]]
molsmiles = "COc1ccc(/C=C2\\CN(C(=O)C(Cl)Cl)C/C(=C\\c3ccc(OC)c(OC)c3)C2=O)cc1OC"
unitssymbol = "%"
reportedresult = -83.6


Provide the reported growth of each entry below, same order.
1. COC(=O)c1ccc2cc(OC)c(OC)cc2c1
2. CSc1ccc2c3c(n(CCCn4ccnc4)c(=O)c2c1)-c1ccccc1C3=O
3. O=C(Nc1ccc(Oc2cccc(Cl)c2)c(Cl)c1)c1cccnn1
4. C=C1C(=O)O[C@H]2[C@H]1CC/C(COC(=O)C(=O)c1c[nH]c3ccc(Cl)cc13)=C\CC[C@@]1(C)O[C@@H]21
5. C=C(c1ccc(C(=O)O)c(F)c1)c1cc2c(cc1C)C(C)(C)CCC2(C)C
6. CSc1nc2ccc(C)cc2cc1/C=C1/C=C(c2ccccc2)NC1=O
7. Cc1ncc(C(=O)Nc2ccc(CN3CCN(C)CC3)c(C(F)(F)F)c2)cc1C#Cc1cnc(N)c2ccc(C#N)cc12

Out:
[95.6, 10.6, 66.7, -99.6, 79.5, 9.26, -19.9]

Provide the reported growth of each entry below, same order.
1. COc1ccc(-c2nc(SCC(=O)Nc3nc4ccc(C)cc4s3)[nH]c(=O)c2C#N)cc1OC
2. CCOC(=O)/C=C1\S/C(=N\Nc2cc(=O)[nH]c3ccc(Br)cc23)N(c2ccccc2)C1=O
3. Cc1[nH]n(-c2cccc(Cl)c2)c(=O)c1/C=C1\C=c2ccccc2=CC1=O
4. C(=C(\C1=NCCN1)n1ccc2ccccc21)/c1ccccc1
5. COc1ccc(NC(=O)c2ccc(Nc3ncnc4c3cnn4-c3cccc(F)c3)cc2)cc1
6. COC(=O)c1c2c(c[n+]([O-])c1C)C(=O)C=C(NCc1ccccc1)C2=O

Out:
1. 94.8
2. 27.1
3. 8.69
4. 94
5. 103
6. -79.5
